TARGET_OF_ASSAY: SARS-CoV-2 M^pro (Severe acute respiratory syndrome coronavirus 2)
PROCEDURE_DETAILS: biochemical
Assay type: biochemical
Numbered stars: 1 amine (or outer) side, 2 acyl side, 3 side chain; on linkers, the order of the positions; unused ones are H or OH. Bridge positions count the residues as written; N and C are the ends. Square brackets hold non-standard residues; d marks the D form. Peptide text beside a SMILES is read from it. X1 = O=C([C@@H]1CC[C@H](N[*:1])C1)[*:2]
Parameter: inhibition at 16.6 µM. Scope: all listed entries.
ENDPOINT_NAME: inhibition at 16.6 µM (%)

>>> quantitative_readout("CC[C@H](C)[C@@H]1NC(=O)[C@H](Cc2ccc(O)cc2)NC(=O)[C@H](CC(C)C)NC(=O)[C@H](CC(=O)O)NC(=O)[C@H](CCCNC(=N)N)NC(=O)[C@H](Cc2ccccc2)NC(=O)[C@H](C)NC(=O)[C@H](Cc2c[nH]cn2)NC(=O)[C@H](Cc2ccccc2)NC(=O)[C@@H](Cc2ccc(O)cc2)NC(=O)CSC[C@H](C(N)=O)NC(=O)CNC(=O)[C@H](CC(C)C)NC1=O [GM5γ^24A] ({CH2CO}-[dY]FHAFRDLYILG[dC]-NH2; thioether N-13)")
100
>>> quantitative_readout("CC[C@H](C)[C@@H]1NC(=O)[C@H](Cc2ccc(O)cc2)NC(=O)[C@H](CC(C)C)NC(=O)[C@H](CC(=O)O)NC(=O)[C@H](CCCNC(=N)N)NC(=O)[C@H](Cc2ccccc2)NC(=O)[C@@H]2CC[C@@H](C2)NC(=O)[C@H](Cc2c[nH]cn2)NC(=O)[C@H](Cc2ccccc2)NC(=O)[C@@H](Cc2ccc(O)cc2)NC(=O)CSC[C@H](C(N)=O)NC(=O)CNC(=O)[C@H](CC(C)C)NC1=O [GM5] ({CH2CO}-[dY]FH[X1]FRDLYILG[dC]-NH2; thioether N-13)")
100
>>> quantitative_readout("CC(C)C[C@@H]1NC(=O)[C@H](CC(N)=O)NC(=O)[C@H](CC(C)C)NC(=O)[C@H](CC(N)=O)NC(=O)[C@H](Cc2c[nH]cn2)NC(=O)[C@H](Cc2ccccc2)NC(=O)[C@@H](Cc2ccc(O)cc2)NC(=O)CSC[C@H](C(N)=O)NC(=O)CNC(=O)[C@@H]2CCCN2C(=O)[C@H](CCCNC(=N)N)NC(=O)[C@H](Cc2ccc(O)cc2)NC(=O)CNC1=O [GM4γ^14N] ({CH2CO}-[dY]FHNLNLGYRPG[dC]-NH2; thioether N-13)")
100

----------
PROCEDURE_DETAILS: Serum stability assay in human serum (LC/MS)
CONDITION: human, Remaining peptide (%), 37 °C, incubation time 8 h, relative to 0 h = 100%, technical replicates
Numbered stars: 1 amine (or outer) side, 2 acyl side, 3 side chain; on linkers, the order of the positions; unused ones are H or OH. Bridge positions count the residues as written; N and C are the ends. Square brackets hold non-standard residues; d marks the D form. Peptide text beside a SMILES is read from it. Acbc(cis-1,3) = O=C([C@H]1C[C@@H](N[*:1])C1)[*:2]; X1 = O=C([C@@H]1CC[C@H](N[*:1])C1)[*:2]
ENDPOINT_NAME: remaining at 8 h, 10 μM (%)

>>> quantitative_readout("CC(C)C[C@@H]1NC(=O)[C@H](CC(N)=O)NC(=O)[C@H](CC(C)C)NC(=O)[C@H]2C[C@H](C2)NC(=O)[C@H](Cc2c[nH]cn2)NC(=O)[C@H](Cc2ccccc2)NC(=O)[C@@H](Cc2ccc(O)cc2)NC(=O)CSC[C@H](C(N)=O)NC(=O)CNC(=O)[C@@H]2CCCN2C(=O)[C@H](CCCNC(=N)N)NC(=O)[C@H](Cc2ccc(O)cc2)NC(=O)CNC1=O [GM4] ({CH2CO}-[dY]FH[Acbc(cis-1,3)]LNLGYRPG[dC]-NH2; thioether N-13)")
97.7
>>> quantitative_readout("CC(C)C[C@@H]1NC(=O)[C@H](CC(N)=O)NC(=O)[C@H](CC(C)C)NC(=O)[C@H]2C[C@H](C2)NC(=O)[C@H](CCC(N)=O)NC(=O)[C@H](Cc2ccccc2)NC(=O)[C@@H](Cc2ccc(O)cc2)NC(=O)CSC[C@H](C(N)=O)NC(=O)CNC(=O)[C@@H]2CCCN2C(=O)[C@H](CCCNC(=N)N)NC(=O)[C@H](Cc2ccc(O)cc2)NC(=O)CNC1=O [GM4H3Q] ({CH2CO}-[dY]FQ[Acbc(cis-1,3)]LNLGYRPG[dC]-NH2; thioether N-13)")
93.9
>>> quantitative_readout("CC[C@H](C)[C@@H]1NC(=O)[C@H](Cc2ccc(O)cc2)NC(=O)[C@H](CC(C)C)NC(=O)[C@H](CC(=O)O)NC(=O)[C@H](CCCNC(=N)N)NC(=O)[C@H](Cc2ccccc2)NC(=O)[C@H](C)NC(=O)[C@H](Cc2c[nH]cn2)NC(=O)[C@H](Cc2ccccc2)NC(=O)[C@@H](Cc2ccc(O)cc2)NC(=O)CSC[C@H](C(N)=O)NC(=O)CNC(=O)[C@H](CC(C)C)NC1=O [GM5γ^24A] ({CH2CO}-[dY]FHAFRDLYILG[dC]-NH2; thioether N-13)")
70.9
>>> quantitative_readout("CC(C)C[C@@H]1NC(=O)[C@H](C)NC(=O)[C@H](Cc2c[nH]cn2)NC(=O)[C@H](Cc2ccccc2)NC(=O)[C@@H](Cc2ccc(O)cc2)NC(=O)CSC[C@H](C(N)=O)NC(=O)CNC(=O)[C@@H]2CCCN2C(=O)[C@H](CCCNC(=N)N)NC(=O)[C@H](Cc2ccc(O)cc2)NC(=O)CNC(=O)[C@H](CC(C)C)NC(=O)[C@H](CC(N)=O)NC1=O [GM4γ^14A] ({CH2CO}-[dY]FHALNLGYRPG[dC]-NH2; thioether N-13)")
53.6
>>> quantitative_readout("CC[C@H](C)[C@@H]1NC(=O)[C@H](Cc2ccc(O)cc2)NC(=O)[C@H](CC(C)C)NC(=O)[C@H](CC(=O)O)NC(=O)[C@H](CCCNC(=N)N)NC(=O)[C@H](Cc2ccccc2)NC(=O)[C@@H]2CC[C@@H](C2)NC(=O)[C@H](Cc2c[nH]cn2)NC(=O)[C@H](Cc2ccccc2)NC(=O)[C@@H](Cc2ccc(O)cc2)NC(=O)CSC[C@H](C(N)=O)NC(=O)CNC(=O)[C@H](CC(C)C)NC1=O [GM5] ({CH2CO}-[dY]FH[X1]FRDLYILG[dC]-NH2; thioether N-13)")
83

----------
PROCEDURE_DETAILS: Serum stability assay in human serum (LC/MS)
CONDITION: human, Remaining peptide (%), 37 °C, incubation time 1 h, relative to 0 h = 100%, technical replicates
Numbered stars: 1 amine (or outer) side, 2 acyl side, 3 side chain; on linkers, the order of the positions; unused ones are H or OH. Bridge positions count the residues as written; N and C are the ends. Square brackets hold non-standard residues; d marks the D form. Peptide text beside a SMILES is read from it. X1 = O=C([C@@H]1CC[C@H](N[*:1])C1)[*:2]
ENDPOINT_NAME: remaining at 1 h, 10 μM (%)

>>> quantitative_readout("CC[C@H](C)[C@@H]1NC(=O)[C@H](Cc2ccc(O)cc2)NC(=O)[C@H](CC(C)C)NC(=O)[C@H](CC(=O)O)NC(=O)[C@H](CCCNC(=N)N)NC(=O)[C@H](Cc2ccccc2)NC(=O)[C@@H]2CC[C@@H](C2)NC(=O)[C@H](Cc2c[nH]cn2)NC(=O)[C@H](Cc2ccccc2)NC(=O)[C@@H](Cc2ccc(O)cc2)NC(=O)CSC[C@H](C(N)=O)NC(=O)CNC(=O)[C@H](CC(C)C)NC1=O [GM5] ({CH2CO}-[dY]FH[X1]FRDLYILG[dC]-NH2; thioether N-13)")
101

----------
PROCEDURE_DETAILS: Serum stability assay in human serum (LC/MS)
CONDITION: human
Numbered stars: 1 amine (or outer) side, 2 acyl side, 3 side chain; on linkers, the order of the positions; unused ones are H or OH. Bridge positions count the residues as written; N and C are the ends. Square brackets hold non-standard residues; d marks the D form. Peptide text beside a SMILES is read from it. X1 = O=C([C@@H]1CC[C@H](N[*:1])C1)[*:2]
ENDPOINT_NAME: half-life at 10 μM

>>> result("CC[C@H](C)[C@@H]1NC(=O)[C@H](Cc2ccc(O)cc2)NC(=O)[C@H](CC(C)C)NC(=O)[C@H](CC(=O)O)NC(=O)[C@H](CCCNC(=N)N)NC(=O)[C@H](Cc2ccccc2)NC(=O)[C@@H]2CC[C@@H](C2)NC(=O)[C@H](Cc2c[nH]cn2)NC(=O)[C@H](Cc2ccccc2)NC(=O)[C@@H](Cc2ccc(O)cc2)NC(=O)CSC[C@H](C(N)=O)NC(=O)CNC(=O)[C@H](CC(C)C)NC1=O [GM5] ({CH2CO}-[dY]FH[X1]FRDLYILG[dC]-NH2; thioether N-13)")
"32 h"
